# System: MCF7
# TEST_PROTOCOL: Cytotoxicity against human MCF7 cells after 96 hrs by Giemsa staining-based light microscopy
# Format: functional, cell-based
# ASSAY_CONDITIONS: MCF7, 96 h
Would you kindly list pIC50 for each of these molecules?
Note: pIC50 values are expressed as the negative base-10 logarithm of concentration in M.

Consider the molecule COc1ccc(-n2ccc(C(=O)c3cc(OC)c(OC)c(OC)c3)c2)cc1OC and give its measured pIC50.
7.00

Same thing, different molecule: COc1cc(C(=O)c2ccn(-c3cccc(F)c3)c2)cc(OC)c1OC
5.89

What do we get for COc1cc(C(=O)c2ccn(-c3ccc(Cl)cc3)c2)cc(OC)c1OC ?
6.70

Query COc1cccc(-n2ccc(C(=O)c3cc(OC)c(OC)c(OC)c3)c2)c1 next
6.22

Lookup COc1ccc(-n2ccc(C(=O)c3cc(OC)c(OC)c(OC)c3)c2)cc1
6.60

What do we get for COc1cc(C(=O)c2ccn(-c3cccc(-n4cccc4)c3)c2)cc(OC)c1OC ?
7.37

Likewise for COc1cc(C(=O)c2ccn(-c3cccc(OC(C)C)c3)c2)cc(OC)c1OC ?
6.60

Consider next the molecule COc1cc(C(=O)c2ccn(-c3cccc(O)c3)c2)cc(OC)c1OC in the same way.
6.40

Same again, this time with COc1cc(C(=O)c2ccn(-c3ccccc3Cl)c2)cc(OC)c1OC
5.35

Another molecule to check: COc1cc(C(=O)c2ccn(-c3ccc(O)cc3)c2)cc(OC)c1OC
6.35

Data provenance is ChEMBL document CHEMBL3351435.
